Target desc: hVR1 (Homo sapiens)
Sequence (Q8NER1 whole entry): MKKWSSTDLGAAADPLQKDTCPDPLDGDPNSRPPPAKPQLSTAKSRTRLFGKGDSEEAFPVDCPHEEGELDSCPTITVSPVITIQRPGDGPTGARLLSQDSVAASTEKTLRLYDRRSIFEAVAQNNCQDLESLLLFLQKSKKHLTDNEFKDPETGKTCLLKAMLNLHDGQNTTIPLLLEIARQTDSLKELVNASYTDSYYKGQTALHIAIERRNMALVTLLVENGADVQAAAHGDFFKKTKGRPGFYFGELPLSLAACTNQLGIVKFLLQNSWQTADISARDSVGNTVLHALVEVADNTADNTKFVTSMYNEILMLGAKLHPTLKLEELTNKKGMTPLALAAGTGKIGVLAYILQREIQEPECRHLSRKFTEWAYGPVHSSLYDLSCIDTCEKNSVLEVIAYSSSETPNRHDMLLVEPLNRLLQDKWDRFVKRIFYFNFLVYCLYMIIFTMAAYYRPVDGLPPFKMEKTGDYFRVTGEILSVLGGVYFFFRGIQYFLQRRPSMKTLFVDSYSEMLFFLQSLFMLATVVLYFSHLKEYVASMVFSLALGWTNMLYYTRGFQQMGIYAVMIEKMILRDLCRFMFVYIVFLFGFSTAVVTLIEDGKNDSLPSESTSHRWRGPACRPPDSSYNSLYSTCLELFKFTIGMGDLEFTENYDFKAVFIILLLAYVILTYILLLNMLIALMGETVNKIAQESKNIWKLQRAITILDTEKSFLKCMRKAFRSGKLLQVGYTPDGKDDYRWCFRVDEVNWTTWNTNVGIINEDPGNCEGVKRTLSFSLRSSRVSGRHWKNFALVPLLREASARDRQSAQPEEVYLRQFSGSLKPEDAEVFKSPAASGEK
Assay text: Human VR1 (hVR1) Functional Assay (FLIPR intracellular calcium, capsaicin challenge)
Experimental conditions: capsaicin 0.030 μM; HEK293 cells expressing hVR1
Measurement kind: log10 IC50 (log10 of the value in nM)
Recall that a logarithmic scale is used here: each number is log10 of IC50 in nM.

A selection of reference data follows.
Molecule	Observed result
NS(=O)(=O)c1ccccc1-c1ccc2[nH]c(CCc3c(F)cccc3F)nc2c1	1.63
NS(=O)(=O)c1ccccc1-c1ccc2[nH]c(/C=C/c3ccccc3Br)nc2c1	1.54
CC(C)(C)c1ccc(/C=C/c2nc3cc(-c4ccccc4NS(C)(=O)=O)ccc3[nH]2)cc1	0.30
CC(C)(O)c1ccccc1-c1ccc2[nH]c(C3CC3c3ccc(C(F)(F)F)cc3)nc2c1 (centres unmarked)	1.00
CNS(=O)(=O)c1ccccc1-c1ccc2[nH]c(/C=C/c3ccc(C(F)(F)F)cc3F)nc2c1	1.11

Take each entry in turn and give its log10 IC50.
1. CC(C)(O)c1ccccc1-c1ccc2[nH]c(CCc3ccc(C(F)(F)F)cc3)nc2c1
2. OCc1ccccc1-c1cc2nc(/C=C/c3ccc(C(F)(F)F)cc3)[nH]c2cc1C(F)(F)F
3. Cc1ccc(/C=C/c2nc3cc(-c4ccccc4NS(C)(=O)=O)ccc3[nH]2)cc1
4. CNS(=O)(=O)c1ccccc1-c1ccc2[nH]c(/C=C/c3ccc(C(F)(F)F)c(F)c3)nc2c1

0.48
1.98
2.28
1.00

Take each entry in turn and give its log10 IC50.
1. Oc1ccccc1-c1ccc2[nH]c(/C=C/c3ccc(C(F)(F)F)cc3)nc2c1
2. NS(=O)(=O)c1ccccc1-c1ccc2[nH]c(/C=C/c3ccc(Cl)cc3Cl)nc2c1
3. CC(C)(C)c1ccc(/C=C/c2nc3cc(-c4ccccc4CO)c(C(F)(F)F)cc3[nH]2)cc1
4. CCOc1ccc(/C=C/c2nc3cc(-c4ccccc4NS(C)(=O)=O)ccc3[nH]2)cc1
5. CC(C)(O)c1ccccc1-c1ccc2[nH]c(C#Cc3ccc(C(F)(F)F)cc3)nc2c1
6. NS(=O)(=O)c1ccccc1-c1ccc2[nH]c(/C=C/c3ccc(F)cc3F)nc2c1

1. 3.00
2. 1.38
3. 1.82
4. 2.15
5. 0.70
6. 0.90

* * *

Target desc: hVR1 (Homo sapiens)
Assay text: Human VR1 (hVR1) Functional Assay (FLIPR intracellular calcium, capsaicin challenge)
Experimental conditions: capsaicin 0.030 μM; HEK293 cells expressing hVR1
Measurement kind: pIC50
Numbers only, as −log10 of the molar value.

A selection of reference data follows.
Molecule	pIC50
CC(O)c1ccccc1-c1ccc2[nH]c(/C=C/c3ccc(C(C)(C)C)cc3)nc2c1 (centres unmarked)	7.92
NS(=O)(=O)c1ccccc1-c1ccc2[nH]c(C#Cc3ccc(C(F)(F)F)cc3)nc2c1	7.72

Take each entry in turn and give its pIC50.
1. NS(=O)(=O)c1ccccc1-c1ccc2[nH]c(/C=C/c3ccc(Cl)c(C(F)(F)F)c3)nc2c1
2. CC(=O)c1ccccc1-c1ccc2[nH]c(/C=C/c3ccc(F)c(F)c3)nc2c1
3. CC(=O)c1ccccc1-c1ccc2[nH]c(/C=C/c3ccc(C(F)(F)F)cc3)nc2c1
4. NS(=O)(=O)c1ccccc1-c1ccc2[nH]c(CCc3ccc(F)cc3C(F)(F)F)nc2c1
5. NS(=O)(=O)c1ccccc1-c1ccc2[nH]c(/C=C/c3ccc(F)cc3C(F)(F)F)nc2c1
6. CC(C)(C)c1ccc(/C=C/c2nc3cc(-c4ccccc4O)ccc3[nH]2)cc1

1: 7.92; 2: 6.59; 3: 6.92; 4: 7.33; 5: 7.28; 6: 6.85

Take each entry in turn and give its pIC50.
1. CC(O)c1ccccc1-c1ccc2[nH]c(CCc3ccc(S(=O)(=O)C(F)(F)F)cc3)nc2c1 (centres unmarked)
2. CNS(=O)(=O)c1ccccc1-c1ccc2[nH]c(/C=C/c3cc(F)ccc3F)nc2c1
3. CC(=O)c1ccccc1-c1ccc2[nH]c(/C=C/c3ccc(S(=O)(=O)C(F)(F)F)cc3)nc2c1
4. Oc1ccccc1-c1cc2nc(/C=C/c3ccc(C(F)(F)F)cc3)[nH]c2cc1Cl

1. 7.34
2. 6.80
3. 7.27
4. 6.48

Take each entry in turn and give its pIC50.
1. CC(C)(O)c1ccccc1-c1ccc2[nH]c(C3CC3c3ccc(Cl)cc3)nc2c1 (centres unmarked)
2. NS(=O)(=O)c1ccc(C(F)(F)F)cc1-c1ccc2[nH]c(/C=C/c3ccc(C(F)(F)F)cc3)nc2c1
3. CC(C)(C)c1ccc(/C=C/c2nc3cc(-c4ccccc4C(C)(C)O)ccc3[nH]2)cc1
4. NS(=O)(=O)c1ccccc1-c1ccc2[nH]c(CCc3ccccc3F)nc2c1
5. CNS(=O)(=O)c1ccccc1-c1ccc2[nH]c(/C=C/c3ccc(Cl)cc3S(C)(=O)=O)nc2c1

[8.00, 7.55, 7.85, 7.49, 7.21]

* * *

Target desc: hVR1 (Homo sapiens)
Construct: expressed in transfected cells; host or cells: HEK293
Assay text: Human VR1 (hVR1) Functional Assay (FLIPR intracellular calcium, capsaicin challenge)
Type: cell-based
Experimental conditions: test concentration 1 μM; capsaicin 0.030 μM; HEK293 cells expressing hVR1
Measurement kind: inhibition at 1 µM
Give the figure together with its unit, number first.

Compound	inhibition at 1 µM
CC(C)(O)c1ccccc1-c1ccc2[nH]c(/C=C/c3ccccc3)nc2c1	97%

Take each entry in turn and give its inhibition at 1 µM.
1. CNS(=O)(=O)c1ccccc1-c1ccc2[nH]c(/C=C/c3ccc(C(=O)O)cc3)nc2c1
2. NS(=O)(=O)c1ccccc1-c1ccc2[nH]c(/C=C/c3ccc(Cl)c(Cl)c3)nc2c1
3. CC(C)(O)c1ccccc1-c1ccc2[nH]c([C@@H]3C[C@H]3c3ccc(C(F)(F)F)cc3)nc2c1
4. NS(=O)(=O)c1ccccc1-c1ccc2[nH]c(/C=C/c3ccccc3Cl)nc2c1
5. NS(=O)(=O)c1ccccc1-c1ccc2[nH]c(/C=C/c3cc(Br)ccc3F)nc2c1
6. CNS(=O)(=O)c1ccccc1-c1ccc2[nH]c(/C=C/c3ccc(C)cc3)nc2c1
7. CC(O)c1ccccc1-c1ccc2[nH]c(/C=C/c3ccc(C(C)(C)C)cc3)nc2c1 (centres unmarked)

22%
98%
99%
99%
99%
100%
100%

Take each entry in turn and give its inhibition at 1 µM.
1. CNS(=O)(=O)c1ccccc1-c1ccc2[nH]c(/C=C/c3ccc(C(F)(F)F)cc3F)nc2c1
2. CC(=O)Nc1ccccc1-c1cc2nc(/C=C/c3ccc(C(C)(C)C)cc3)[nH]c2cc1C(F)(F)F
3. CNS(=O)(=O)c1ccccc1-c1ccc2[nH]c(/C=C/c3cccc(OC(F)(F)F)c3)nc2c1
4. NS(=O)(=O)c1ccccc1-c1ccc2[nH]c(/C=C/c3cccc(OC(F)(F)F)c3)nc2c1
5. CS(=O)(=O)Nc1ccccc1-c1ccc2[nH]c(/C=C/c3ccc(Br)cc3)nc2c1

1: 100%; 2: 100%; 3: 101%; 4: 99%; 5: 97%

Take each entry in turn and give its inhibition at 1 µM.
1. NS(=O)(=O)c1ccccc1-c1ccc2[nH]c(CCc3ccc(F)c(F)c3F)nc2c1
2. CC(=O)c1ccccc1-c1ccc2[nH]c(/C=C/c3ccc(C(F)(F)F)cc3)nc2c1

98%
100%

Take each entry in turn and give its inhibition at 1 µM.
1. NS(=O)(=O)c1cc(C(F)(F)F)ccc1-c1ccc2[nH]c(/C=C/c3ccc(C(F)(F)F)cc3)nc2c1
2. NS(=O)(=O)c1ccccc1-c1ccc2[nH]c(/C=C/c3ccc(F)c(F)c3F)nc2c1

97%
98%

* * *

Target desc: UniProt:Q8NER1
Assay text: Human VR1 (hVR1) Functional Assay (FLIPR intracellular calcium, capsaicin challenge)
Experimental conditions: capsaicin 0.030 μM; HEK293 cells expressing hVR1
Give measured IC50 for each item. Keep answers brief.

A selection of reference data follows.
1) CNS(=O)(=O)c1ccccc1-c1ccc2[nH]c(/C=C/c3cc(F)cc(F)c3)nc2c1 0.035 µM
2) CS(=O)(=O)Nc1ccccc1-c1ccc2[nH]c(/C=C/c3ccc(Cl)c(Cl)c3)nc2c1 0.12 µM
3) CNS(=O)(=O)c1ccccc1-c1ccc2[nH]c(/C=C/c3ccc(N(C)C)cc3)nc2c1 0.05 µM
4) CC(C)(O)c1ccccc1-c1ccc2[nH]c(C#Cc3ccccc3)nc2c1 0.002 µM
5) NS(=O)(=O)c1ccccc1-c1ccc2[nH]c(/C=C/c3cc(C(F)(F)F)ccc3C(F)(F)F)nc2c1 0.034 µM

Take each entry in turn and give its IC50.
1. NS(=O)(=O)c1ccccc1-c1ccc2[nH]c(/C=C/c3ccc(F)c(C(F)(F)F)c3)nc2c1
2. CC(=O)c1ccccc1-c1ccc2[nH]c(/C=C/c3ccc(OC(F)(F)F)cc3)nc2c1

["0.008 µM", "0.32 µM"]

Supply measured IC50 of "CNS(=O)(=O)c1ccccc1-c1ccc2[nH]c(/C=C/c3ccc(F)c(F)c3F)nc2c1" in your reply. 0.04 µM
